experimentalSystem: Agg-1 (Homo sapiens)
testSummary: Agg-1 FRET assay
Assay type: biochemical
assayContext: @ 33000 nM; read-out: Agg1 %
measuredAttribute: inhibition at 33 µM (%)

CCCCCc1ccc(OCC(=O)NC(c2ccccc2Cl)c2cc(Cl)c3cccnc3c2O)cc1 (stereo not shown): 44
O=C(COc1ccccc1)NC(c1cc(Cl)c2cccnc2c1O)c1cc2ccccc2c2ccccc12 (stereo not shown): 54
Cc1ccsc1C(NC(=O)COc1ccccc1)c1cc(Cl)c2cccnc2c1O (stereo not shown): 33
CC(C)c1ccc(C(NC(=O)COc2ccccc2)c2cc(Cl)c3cccnc3c2O)cc1 (stereo not shown): 47

----------
experimentalSystem: Agg-1 (Homo sapiens, UniProt O75173)
Sequence (O75173 213-837): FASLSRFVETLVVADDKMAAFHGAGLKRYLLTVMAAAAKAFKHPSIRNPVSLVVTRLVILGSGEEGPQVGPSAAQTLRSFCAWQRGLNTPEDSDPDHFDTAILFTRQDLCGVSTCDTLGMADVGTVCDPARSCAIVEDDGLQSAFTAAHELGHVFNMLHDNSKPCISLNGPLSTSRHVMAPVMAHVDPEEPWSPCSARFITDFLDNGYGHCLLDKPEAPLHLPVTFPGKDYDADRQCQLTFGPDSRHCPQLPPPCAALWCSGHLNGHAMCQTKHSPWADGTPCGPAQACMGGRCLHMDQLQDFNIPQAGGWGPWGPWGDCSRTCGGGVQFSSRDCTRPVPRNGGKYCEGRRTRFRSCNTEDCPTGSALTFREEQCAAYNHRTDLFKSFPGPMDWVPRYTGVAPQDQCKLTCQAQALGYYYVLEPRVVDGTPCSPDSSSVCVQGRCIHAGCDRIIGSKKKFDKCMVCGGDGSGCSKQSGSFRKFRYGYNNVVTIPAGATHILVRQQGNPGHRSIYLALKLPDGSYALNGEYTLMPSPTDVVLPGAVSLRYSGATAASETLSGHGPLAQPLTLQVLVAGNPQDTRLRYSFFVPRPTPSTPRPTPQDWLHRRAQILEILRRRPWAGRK
testSummary: Agg-1 FRET assay
Assay type: biochemical
assayContext: read-out: FRET IC50 Agg-1
pIC50: −log10 of the molar value.
measuredAttribute: pIC50

1 = O=C(COc1ccccc1)NC(c1ccccc1)c1ccc2cccc(OC(=O)COc3ccccc3)c2n1 (centres unmarked)
2 = O=C(COc1ccccc1)NC(c1ccccc1)c1ccc2cccc(O)c2n1 (centres unmarked)
Smaller pIC50 value? Options are 1 and 2 Which one? Tell me its label.
2
(2: 4.82, 1: 5.40)
